# subject.of.test: Complement component 3 (C3) (Homo sapiens) (UniProt P01024+P01024)
# Sequence (P01024 23-667, chain 1 of 2): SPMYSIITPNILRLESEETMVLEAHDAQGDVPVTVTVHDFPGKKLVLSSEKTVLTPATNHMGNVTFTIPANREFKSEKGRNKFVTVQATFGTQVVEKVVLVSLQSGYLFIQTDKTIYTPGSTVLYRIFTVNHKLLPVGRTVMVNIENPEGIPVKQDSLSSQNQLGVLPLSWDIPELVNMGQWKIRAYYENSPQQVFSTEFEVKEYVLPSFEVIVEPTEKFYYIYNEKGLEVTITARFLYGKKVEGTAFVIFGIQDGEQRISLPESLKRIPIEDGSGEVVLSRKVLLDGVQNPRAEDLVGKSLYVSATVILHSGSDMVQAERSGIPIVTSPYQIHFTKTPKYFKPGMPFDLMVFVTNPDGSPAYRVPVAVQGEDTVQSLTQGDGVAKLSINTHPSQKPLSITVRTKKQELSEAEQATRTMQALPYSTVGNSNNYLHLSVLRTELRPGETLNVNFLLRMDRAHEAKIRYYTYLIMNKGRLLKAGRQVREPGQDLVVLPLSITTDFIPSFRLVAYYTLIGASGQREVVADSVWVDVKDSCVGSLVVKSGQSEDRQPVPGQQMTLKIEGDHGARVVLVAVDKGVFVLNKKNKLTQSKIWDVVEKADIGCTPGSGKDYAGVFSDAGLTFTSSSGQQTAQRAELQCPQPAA
# Sequence (P01024 672-1663, chain 2 of 2): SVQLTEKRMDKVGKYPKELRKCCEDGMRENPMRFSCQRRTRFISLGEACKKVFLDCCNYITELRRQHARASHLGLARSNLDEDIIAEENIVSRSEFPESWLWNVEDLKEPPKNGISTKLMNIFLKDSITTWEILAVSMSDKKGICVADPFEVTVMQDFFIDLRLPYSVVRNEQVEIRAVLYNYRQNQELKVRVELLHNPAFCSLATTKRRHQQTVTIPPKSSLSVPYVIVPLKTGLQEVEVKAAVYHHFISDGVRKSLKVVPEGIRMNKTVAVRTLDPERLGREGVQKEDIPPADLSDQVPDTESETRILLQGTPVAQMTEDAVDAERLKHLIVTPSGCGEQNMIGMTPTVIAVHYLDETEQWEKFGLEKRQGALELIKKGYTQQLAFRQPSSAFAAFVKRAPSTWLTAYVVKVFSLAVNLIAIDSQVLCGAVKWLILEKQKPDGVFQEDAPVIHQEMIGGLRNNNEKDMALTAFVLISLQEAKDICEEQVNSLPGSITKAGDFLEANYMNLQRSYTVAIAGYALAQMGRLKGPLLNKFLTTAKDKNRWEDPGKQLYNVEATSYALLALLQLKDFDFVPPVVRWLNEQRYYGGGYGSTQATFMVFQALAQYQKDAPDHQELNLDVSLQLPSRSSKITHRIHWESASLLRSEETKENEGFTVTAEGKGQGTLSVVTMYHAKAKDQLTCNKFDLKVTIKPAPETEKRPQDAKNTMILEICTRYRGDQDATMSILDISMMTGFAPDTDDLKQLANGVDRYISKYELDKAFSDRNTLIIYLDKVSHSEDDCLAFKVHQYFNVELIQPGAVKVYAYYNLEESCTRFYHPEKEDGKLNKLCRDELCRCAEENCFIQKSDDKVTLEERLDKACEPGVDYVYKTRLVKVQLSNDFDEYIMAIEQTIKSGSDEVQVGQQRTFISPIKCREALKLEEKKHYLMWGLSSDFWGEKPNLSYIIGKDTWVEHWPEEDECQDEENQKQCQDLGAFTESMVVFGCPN
# assay.remarks: filter
# conditions.used: all U = NapdU; C3-spacer replaces C17; 3'-3' idT; SB18T0.01, 37C
pKd: −log10 of the molar value.
# pKd listing for each entry below
measured.metric: pKd

chain: CCGGUGACUCAAUAGUCGUACGUUCCCGG [8491-94_42]
subject.of.test: Complement component 3 (C3) (Homo sapiens) (UniProt P01024+P01024)
assay.result: 9.07
--
chain: CGGUGACUCAAUAGUCGUACGUUCCCG [8491-94_58]
subject.of.test: Complement component 3 (C3) (Homo sapiens) (UniProt P01024+P01024)
assay.result: 9.10
